B1: SNAP91 (parent)
chain: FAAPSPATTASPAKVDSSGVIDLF

Variants of: B1
Assay: protein stability index of a GFP-peptide fusion (GPS, HEK-293T) (PSI 1-6); higher = more stable;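 note: lentivirally expressed fusions sorted by FACS into six bins by GFP to DsRed ratio, PSI derived from sequencing read proportions per bin multiplied by bin number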
Settings: c terminus: a fixed tail appended
Entries annotated with measured protein stability index

- variant spec: "A10E"
  measured result: 2.56
- variant spec: "V20A"
  measured result: 2.45
- variant spec: "A7M"
  measured result: 2.23
- variant spec: "P12N"
  measured result: 2.6
- variant spec: "S17P"
  measured result: 2.39

Q. Report measured protein stability index; entry is K14A
A. 2.94

Q. Report measured protein stability index; entry is S11K
A. 2.6

Q. Report measured protein stability index; entry is G19V
A. 2.07

Q. Report measured protein stability index; entry is A2K
A. 3.08

Q. Report measured protein stability index; entry is G19H
A. 2.4

Q. Report measured protein stability index; entry is S18E
A. 2.72
